// endpoint IC50 / system Glycogen synthase kinase-3 alpha (Homo sapiens)

Some solved entries appear below for comparison.
| compound | IC50 |
| --- | --- |
| CC1(C)CC(=O)C2=C(C1)NC1=C(CN=N1)C21CSC1 | < 100 nM |
| O=C1C2=C(NC3N=NC=C3C23CCOCC3)[C@H]2CC[C@@H]1C2 (some centres undefined) | 100 to 1000 nM |

Problem: Requested read-out IC50, target or system Glycogen synthase kinase-3 alpha (Homo sapiens), entry CC1(C)CC(=O)C2=C(C1)NC1=C(CN=N1)C21COC2(CN(C(=O)C3(F)CCC3)C2)C1 (centres undefined)
Result: < 100 nM

Problem: Requested read-out IC50, target or system Glycogen synthase kinase-3 alpha (Homo sapiens), entry "CC1(C)CC(=O)C2=C(NC3=C(CN=N3)C23CCN(S(=O)(=O)c2ccccc2C(F)F)CC3)[C@@H]1F"
Result: < 100 nM

====

// endpoint IC50 / system UniProt:P49840

| compound | observation_type | test_result |
| --- | --- | --- |
| CC[C@]1(c2cccc(-c3ccnc(C)c3)c2)C2=CN=NC2NC2=C1C(=O)[C@@H]1CC[C@H]2C1 (some centres not stated) | IC50 | 1000 to 5000 nM |
| CCn1nc(C)cc1S(=O)(=O)N1CCC2(CC1)C1=CN=NC1NC1=C2C(=O)CC(C)(C)C1 (configuration not stated) | IC50 | < 100 nM |
| CCC1(c2cccc(-c3cn(C)nc3C)c2)C2=C(CC(C)(C)NC2=O)NC2N=NC(Cl)=C21 (configuration not stated) | IC50 | < 100 nM |
| CC1(C)CC(=O)C2=C(C1)NC1=C(CN=N1)C21CC(C(F)(F)F)C1 (configuration not stated) | IC50 | < 100 nM |
| CC[C@@]1(c2cccc(-c3ccnc(C)c3F)c2)C2=CN=NC2NC2=C1C(=O)NC(C)(C)C2 (some centres not stated) | IC50 | < 100 nM |
| CC1(c2ccccc2)C2=C(N=NC2)NC2=C1C(=O)CC1(CCCC1)C2 (configuration not stated) | IC50 | 100 to 1000 nM |

Now take the following compound into account.
Problem: Requested read-out IC50, target or system UniProt:P49840, entry CC[C@]1(c2cccc(-c3cncn3C)c2)C2=CN=NC2NC2=C1C(=O)CC(C)(C)C2 (some centres not stated)
Result: 100 to 1000 nM

====

Catalogue of pIC50 readings, one per entry.
# target_entity: Glycogen synthase kinase-3 beta (Homo sapiens, UniProt P49841)
# Sequence (P49841 whole entry): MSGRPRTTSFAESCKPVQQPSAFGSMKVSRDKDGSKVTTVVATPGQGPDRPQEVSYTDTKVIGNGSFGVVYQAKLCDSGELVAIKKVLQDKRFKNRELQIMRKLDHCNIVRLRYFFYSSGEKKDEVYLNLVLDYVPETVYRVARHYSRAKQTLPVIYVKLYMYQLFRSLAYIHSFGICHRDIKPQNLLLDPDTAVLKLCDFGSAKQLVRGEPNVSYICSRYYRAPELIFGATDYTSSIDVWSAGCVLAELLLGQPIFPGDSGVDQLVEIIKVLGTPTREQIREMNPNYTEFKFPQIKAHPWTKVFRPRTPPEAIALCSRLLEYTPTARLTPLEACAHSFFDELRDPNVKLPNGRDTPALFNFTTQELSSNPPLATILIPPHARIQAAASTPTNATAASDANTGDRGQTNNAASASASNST
pIC50: −log10 of the molar value.

Some solved entries appear below for comparison.
| compound | pIC50 |
| --- | --- |
| CC[C@@]1(c2ccccc2)C2=CN=NC2NC2=C1C(=O)[C@@H](F)C(C)(C)C2 (stereo partly specified) [US20250313563, Compound 826767] | < 5.30 |
| C[C@@]1(c2ccccc2)C2=C(N=NC2)NC2=C1C(=O)CC1(CCCC1)C2 | < 5.30 |
| CC[C@@]1(c2cccc(N3CCC3(C)C)c2)C2=CN=NC2NC2=C1C(=O)CC(C)(C)C2 (stereo partly specified) | 5.30 to 6.00 |
| CC[C@]1(c2cccc(C(F)(F)F)c2)C2=CN=NC2NC2=C1C(=O)N[C@H](C)C2 (stereo partly specified) | 6.00 to 7.00 |
| CC[C@@]1(c2cccc(Br)c2)C2=CN=NC2NC2=C1C(=O)C[C@@H](C)C2 (stereo partly specified) | < 5.30 |

Problem: Fill in the blank: the reported pIC50 of CCC1(c2cccc(C(F)F)c2)C2=C(CC(C)(C)NC2=O)NC2N=NC(C(F)(F)F)=C21 (stereo unspecified) is ____.
Result: > 7.00

Problem: Fill in the blank: the reported pIC50 of "CC1(C)CC(=O)C2=C(C1)NC1=C(CN=N1)C21CCOCC1" is ____.
Result: 6.00 to 7.00

Problem: Fill in the blank: the reported pIC50 of CC[C@@]1(c2ccccc2)C2=CN=NC2NC2=C1C(=O)C[C@H](C(F)(F)F)C2 (stereo partly specified) is ____.
Result: < 5.78

====

// endpoint IC50 / system Glycogen synthase kinase-3 beta (Homo sapiens, UniProt P49841)

Problem: Fill in the blank: the reported IC50 of CC[C@]1(c2cccc(-c3ccncc3C)c2)C2=CN=NC2NC2=C1C(=O)N[C@@]1(CCOC1)C2 (stereo partly drawn) is ____.
Result: > 5000 nM

Problem: Fill in the blank: the reported IC50 of CC(C)(C)CC1N=NC2=C1[C@](C)(c1cccc(S(=O)(=O)N3CCCC3)c1)C1=C(CC(C)(C)NC1=O)N2 (stereo partly drawn) is ____.
Result: 100 to 1000 nM

Problem: Fill in the blank: the reported IC50 of CCC1(c2cc(N3CCOCC3)ccc2F)C2=CN=NC2NC2=C1C(=O)CC(C)(C)C2 (stereo not drawn) is ____.
Result: 1000 to 5000 nM

Problem: Fill in the blank: the reported IC50 of "Cc1cccc(S(=O)(=O)N2CCC3(CC2)C2=C(N=NC2)NC2=C3C(=O)CC(C)(C)C2)c1" is ____.
Result: < 100 nM

Problem: Fill in the blank: the reported IC50 of CC[C@@]1(c2cccc(C(F)(F)F)c2)C2=CN=NC2NC2=C1C(=O)N(c1cccc(C)c1)CC2 (stereo partly drawn) is ____.
Result: > 5000 nM

Problem: Fill in the blank: the reported IC50 of CC[C@]1(c2cccc(-c3cc(C)ncc3C)c2)C2=C(CC(C)(C)CC2=O)NC2N=NC(C(F)(F)F)=C21 (stereo partly drawn) is ____.
Result: 100 to 1000 nM

Problem: Fill in the blank: the reported IC50 of CC[C@]1(c2cccc(-c3ccnc4c3CCCC4)c2)C2=CN=NC2NC2=C1C(=O)CC(C)(C)C2 (stereo partly drawn) is ____.
Result: > 5000 nM

Problem: Fill in the blank: the reported IC50 of "CC1(C)CC(=O)C2=C(C1)NC1=C(CN=N1)[C@@]21CCOC(C)(C)C1" is ____.
Result: 100 to 1000 nM

Problem: Fill in the blank: the reported IC50 of CC(C)CC(=O)N1CC2(C1)CC1(CO2)C2=C(N=NC2)NC2=C1C(=O)CC(C)(C)C2 (stereo not drawn) is ____.
Result: < 100 nM

Problem: Fill in the blank: the reported IC50 of C[C@@H]1CCC[C@@]12C1=CN=NC1NC1=C2C(=O)CC(C)(C)C1 (stereo partly drawn) is ____.
Result: 1000 to 5000 nM

Problem: Fill in the blank: the reported IC50 of "CC1(C)CC(=O)C2=C(C1)NC1=C(CN=N1)[C@@]21COC2(CN(C(=O)[C@@H]3CC3(F)F)C2)C1" is ____.
Result: 100 to 1000 nM

Problem: Fill in the blank: the reported IC50 of CCC1(c2ccccc2)C2=C(N=NC2)NC2=C1C(=O)CC1(CCC1)C2 (stereo not drawn) is ____.
Result: 100 to 1000 nM

Problem: Fill in the blank: the reported IC50 of CCn1cc(N2CCC3=C(C2=O)[C@](CC)(c2cccc(C(F)(F)F)c2)C2=CN=NC2N3)cn1 (stereo partly drawn) [US20250313563, Compound 949868] is ____.
Result: > 5000 nM

====

// endpoint pIC50 / system UniProt:P49840
pIC50: −log10 of the molar value.

Some solved entries appear below for comparison.
| molecule | target_entity | test_result |
| --- | --- | --- |
| CC1(C)CC(=O)C2=C(C1)NC1=C(CN=N1)[C@@]21CCO[C@@H](C(C)(C)C)C1 | UniProt:P49840 | 5.30 to 6.00 |
| CCCC(C(C)=O)c1cccc(C2(CC)C3=CN=NC3NC3=C2C(=O)CC(C)(C)C3)c1 (stereo unspecified) | UniProt:P49840 | > 7.00 |
| CC[C@@]1(c2cc(-c3cnn(C)c3)ccc2F)C2=CN=NC2NC2=C1C(=O)CC(C)(C)C2 (stereo partly specified) | UniProt:P49840 | < 5.30 |
| CC[C@@]1(c2cccc(C3=CNN4CC=CN=C34)c2)C2=CN=NC2NC2=C1C(=O)NC(C)(C)C2 (stereo partly specified) | UniProt:P49840 | > 7.00 |
| CCC1(c2cccc(Oc3ncccn3)c2)C2=C(CC(C)(C)NC2=O)NC2N=NC(F)=C21 (stereo unspecified) | UniProt:P49840 | > 7.00 |

Problem: Requested read-out pIC50, target or system UniProt:P49840, entry "CC1(C)CC(=O)C2=C(C1)NC1=C(CN=N1)[C@@]21CO[C@@H](C2CC2)C1"
Result: 6.00 to 7.00

====

// endpoint IC50 / system Glycogen synthase kinase-3 beta (Homo sapiens, UniProt P49841)

Some solved entries appear below for comparison.
| compound | IC50 |
| --- | --- |
| CCC1(c2ccccc2)C2=C(N=NC2)NC2=C1C(=O)CC1(CCCC1)C2 (stereo not drawn) [US20250313563, Compound 785737] | 100 to 1000 nM |
| CC[C@@]1(c2cccc(-c3cc(C4CCCC4)nn3C)c2)C2=CN=NC2NC2=C1C(=O)NC(C)(C)C2 (stereo partly drawn) [US20250313563, Compound 952023] | 1000 to 5000 nM |
| CC(=O)N1CC[C@]2(C1)C1=C(N=NC1)NC1=C2C(=O)CC(C)(C)C1 [US20250313563, Compound 889583] | > 5000 nM |
| CC[C@]1(c2cccc(-c3ccnc(C)c3)c2)C2=CN=NC2NC2=C1C(=O)[C@H](F)C(C)(C)C2 (stereo partly drawn) [US20250313563, Compound 945485] | > 5000 nM |
| CC[C@]1(c2cccc(-c3cc(C)ncc3F)c2)C2=C(CC(C)(C)NC2=O)NC2N=NC(C)=C21 (stereo partly drawn) [US20250313563, Compound 949327] | > 5000 nM |

Problem: Requested read-out IC50, target or system Glycogen synthase kinase-3 beta (Homo sapiens, UniProt P49841), entry CCC1(c2cccc(-c3ccncc3CO)c2)C2=CN=NC2NC2=C1C(=O)CC(C)(C)C2 (stereo not drawn) [US20250313563, Compound 943539]
Result: < 100 nM

Problem: Requested read-out IC50, target or system Glycogen synthase kinase-3 beta (Homo sapiens, UniProt P49841), entry CC[C@@]1(c2cccc(-c3ccnn3C)c2)C2=CN=NC2NC2=C1C(=O)N[C@](C)(COC)C2 (stereo partly drawn) [US20250313563, Compound 947905]
Result: 100 to 1000 nM

Problem: Requested read-out IC50, target or system Glycogen synthase kinase-3 beta (Homo sapiens, UniProt P49841), entry CC[C@]1(c2cccc(N(C)c3cc(C)ccn3)c2)C2=CN=NC2NC2=C1C(=O)CC(C)(C)C2 (stereo partly drawn) [US20250313563, Compound 945616]
Result: > 5000 nM
